# inhibition listing for each entry below
Target: Inhibitor of nuclear factor kappa-B kinase subunit alpha (Homo sapiens) (UniProt O15111);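 further: mean inhibition of IKKA, from the GSK PKIS data set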
Sequence (whole entry): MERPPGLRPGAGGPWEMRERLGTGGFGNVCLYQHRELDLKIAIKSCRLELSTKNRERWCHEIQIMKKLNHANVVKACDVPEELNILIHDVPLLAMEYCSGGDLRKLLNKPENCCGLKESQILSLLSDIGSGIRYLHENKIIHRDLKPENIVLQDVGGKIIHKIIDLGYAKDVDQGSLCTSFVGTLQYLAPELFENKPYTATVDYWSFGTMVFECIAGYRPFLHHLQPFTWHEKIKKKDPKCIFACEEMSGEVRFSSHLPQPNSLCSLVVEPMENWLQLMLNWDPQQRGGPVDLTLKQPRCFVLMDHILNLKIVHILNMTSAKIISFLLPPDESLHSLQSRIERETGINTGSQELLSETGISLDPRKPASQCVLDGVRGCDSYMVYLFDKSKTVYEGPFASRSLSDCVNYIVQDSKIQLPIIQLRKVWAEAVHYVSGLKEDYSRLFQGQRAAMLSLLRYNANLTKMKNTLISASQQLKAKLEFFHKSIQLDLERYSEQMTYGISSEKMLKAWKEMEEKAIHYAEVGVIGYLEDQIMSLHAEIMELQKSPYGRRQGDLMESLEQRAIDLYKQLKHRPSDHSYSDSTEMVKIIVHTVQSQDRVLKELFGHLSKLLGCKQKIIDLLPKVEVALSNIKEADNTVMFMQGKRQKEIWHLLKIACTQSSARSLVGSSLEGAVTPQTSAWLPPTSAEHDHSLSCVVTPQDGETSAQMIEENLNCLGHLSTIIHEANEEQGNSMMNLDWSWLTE
Conditions: at 1 µM
Write down the numeric answer in % and omit the unit.

As a guide, the following entries are already answered.
> print(dat)
                               smiles.entry                               target.desc  quantity.unit  quantitative.readout
1  NS(=O)(=O)c1cccc(N/C=C2\C(=O)Nc3ccccc32)c1  Inhibitor of nuclear factor kappa-B kinase subunit alpha (Homo sapiens) (UniProt O15111)              %                  3.57
2  CCS(=O)(=O)c1ccc(OC)c(Nc2ncc(-c3cccc(C(C)=O)c3)o2)c1  Inhibitor of nuclear factor kappa-B kinase subunit alpha (Homo sapiens) (UniProt O15111)              %                 -1.11

Request: // inhibition lookup, key: CC1(C)CC(n2cnc(-c3ccc(F)cc3)c2-c2ccnc(N)n2)CC(C)(C)N1
Result: 1.35

Request: // inhibition lookup, key: CS(=O)(=O)Nc1ccc(-c2ccc3c(NC(=O)C4CC4)n[nH]c3c2)cc1
Result: -3.42

###

# inhibition listing for each entry below
Target: Serine/threonine-protein kinase Nek6 (Homo sapiens) (UniProt Q9HC98)
Sequence (Q9HC98 whole entry): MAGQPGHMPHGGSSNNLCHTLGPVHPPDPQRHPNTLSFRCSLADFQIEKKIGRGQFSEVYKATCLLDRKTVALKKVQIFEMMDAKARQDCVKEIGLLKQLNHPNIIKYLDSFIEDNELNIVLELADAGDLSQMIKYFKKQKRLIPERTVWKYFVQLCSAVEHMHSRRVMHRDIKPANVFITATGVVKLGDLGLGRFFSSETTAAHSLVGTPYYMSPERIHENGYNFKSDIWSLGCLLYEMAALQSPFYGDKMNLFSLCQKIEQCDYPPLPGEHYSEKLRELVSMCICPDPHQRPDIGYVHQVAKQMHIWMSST
Details: at 0.1 µM
Write down the numeric answer in % and omit the unit.

As a guide, the following entries are already answered.
> print(dat)
                               smiles.entry                               target.desc  assay.metric  quantitative.readout
1  CCN1CCC(C(=O)Nc2n[nH]c3nnc(-c4cccc(F)c4F)cc23)CC1  Serine/threonine-protein kinase Nek6 (Homo sapiens) (UniProt Q9HC98)    inhibition                  1.25
2  CNC(=O)c1ncccc1Nc1nc(Nc2cc3c(cc2OC)CCCN3C(=O)CN(C)C)nc2[nH]ccc12  Serine/threonine-protein kinase Nek6 (Homo sapiens) (UniProt Q9HC98)    inhibition                  2.87
3  CC(C)c1ccc(-c2cc(-c3c[nH]nc3-c3ccccn3)ccn2)cc1  Serine/threonine-protein kinase Nek6 (Homo sapiens) (UniProt Q9HC98)    inhibition                  1.08
4  CNC(=O)c1sc(-n2cnc3cc(OC)c(OC)cc32)cc1OCc1ccccc1C(F)(F)F  Serine/threonine-protein kinase Nek6 (Homo sapiens) (UniProt Q9HC98)    inhibition                  1.25

Proceeding to the next compound to report its inhibition.
Request: Entry NC(=O)c1ccc2c(-c3ccnc(NCCCO)n3)c(-c3ccc(F)cc3)nn2c1 , system Serine/threonine-protein kinase Nek6 (Homo sapiens) (UniProt Q9HC98): what inhibition was measured?;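 further: values are the mean percent inhibition of NEK6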
Result: 1.23
